Taken from PubChem BioAssay AID1159580.

test: chemical genetic growth profiling, strain panel (AID 1159580);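 note: tested at 20 µM; growth read once vehicle control cultures reached saturation at 30 °C; 1 = growth at the plate median or of vehicle wells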; conditions: S. cerevisiae deletion strains, growth OD, locus YMR263W, strain SAP30, stronger effect = lower value
Out of some 5,500 compounds screened, about 2,000 (36%) were called active. Inconclusive results (about 18%) are left out. The list shows a part of the results.
measurement name: normalized growth
One number for each entry.

Below are worked cases with known answers.
compound: N#CCCN1C(=O)C2(OCCO2)c2ccccc21
normalized growth: 1.05
//
compound: NC(=S)CS(=O)(=O)c1ccc(C(F)(F)F)cc1
normalized growth: 1.04
//
compound: COc1ccc([N+](=O)[O-])c(OC)c1C(N)=O
normalized growth: 1.02

Let's switch to this compound now.
For CC(=O)[C@@]1(O)CCC2C3C=C(Cl)C4=CC(=O)[C@@H]5CC5[C@]4(C)C3CC[C@@]21C (some centres undefined) the compound record lists normalized growth as 1.02

---

experiment: chemical genetic growth profiling, strain panel (AID 1159580);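 note: tested at 20 µM; growth read once vehicle control cultures reached saturation at 30 °C; 1 = growth at the plate median or of vehicle wells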; settings: S. cerevisiae deletion strains, growth OD, locus YER015W, strain faa2, stronger effect = lower value
Among all 5,500 compounds or so, about 2,000 (36%) were called active. Roughly 18% stayed inconclusive and do not appear here. This is one part of the list.
measurement name: normalized growth
Numbers only.

compound: CC(C)Nc1nc(Cl)nc(NC(C)C)n1
normalized growth: 1

Below are 8 compounds. Give each one its normalized growth.
1. COc1ccc(-c2cc(=O)c3c(OC)c(OC)c(OC)c(OC)c3o2)cc1OC
2. COc1ccc(-c2cc(=O)c3c(O)c(OC)c(O[C@H]4O[C@H](CO[C@@H]5O[C@@H](C)[C@H](O)[C@@H](O)[C@H]5O)[C@@H](O)[C@H](O)[C@H]4O)cc3o2)cc1
3. COP(N)(=O)SC (centres undefined)
4. CC1(C)S[C@@H]2[C@H](NC(=O)C(C(=O)O)c3ccccc3)C(=O)N2[C@H]1C(=O)O (some centres undefined)
5. COc1nc(NC(C)C)nc(NC(C)C)n1
6. COc1ccc(-c2cc(=O)c3c(O)c(OC)c(OC)c(OC)c3o2)cc1OC
7. C/C=C/CC(C)C(O)C1C(=O)NC(CC)C(=O)N(C)CC(=O)N(C)C(CC(C)C)C(=O)NC(C(C)C)C(=O)N(C)C(CC(C)C)C(=O)NC(C)C(=O)NC(C)C(=O)N(C)C(CC(C)C)C(=O)N(C)C(CC(C)C)C(=O)N(C)C(C(C)C)C(=O)N1C (centres undefined)
8. O=c1c2cc(O)c(O)cc2oc2cc(O)c(C3O[C@H](CO)[C@H](O)[C@@H](O)[C@H]3O)c(O)c12 (some centres undefined)

**A:**
[0.992, 0.984, 1.01, 0.986, 1.02, 0.989, 1.02, 1]

---

assay: chemical genetic growth profiling, strain panel (AID 1159580);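 note: tested at 20 µM; growth read once vehicle control cultures reached saturation at 30 °C; 1 = growth at the plate median or of vehicle wells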; conditions: S. cerevisiae deletion strains, growth OD, locus YJR043C, strain POL32
Out of some 5,500 compounds screened, about 2,000 (36%) were called active. Not shown: some 18% with an inconclusive outcome. No stated cut-off is given here; in the data, active means normalized growth mostly below about 0.91 (no sharp cut-off); inconclusive means no clear call, values can overlap the other calls; inactive means mostly above about 0.92. The list shows a part of the results.
Reply using exactly one outcome from active, inactive

Example entries begin here.
compound: COc1cc(C(=O)N2CCOCC2)cc(OC)c1OC
class: inactive

compound: O=C(O)c1ccccc1O
class: inactive

**Q:** How did this test come out for COc1ccc(-c2cc(=O)c3c(O)cc(O)cc3o2)cc1O ?
**A:** inactive

**Q:** Dear all, I need the recorded test outcome for NCCCN , thank you.
**A:** inactive

**Q:** Test call for this compound, please: C/C=C(/C)C(=O)O[C@@H]1Cc2c(ccc3ccc(=O)oc23)OC1(C)C
**A:** inactive

**Q:** // return assay outcome for CCC(=O)O[C@]1(C(=O)CCl)[C@@H](C)CC2C3CCC4=CC(=O)C=C[C@]4(C)[C@@]3(F)[C@@H](O)C[C@@]21C (stereo not given in full)
**A:** inactive

**Q:** # lookup: test call for NC[C@@H]1O[C@H](O[C@@H]2[C@@H](CO)OC(O[C@@H]3[C@@H](O)[C@H](N)C[C@H](N)[C@H]3O[C@H]3O[C@H](CO)[C@@H](O)[C@H](O)[C@H]3N)[C@@H]2O)[C@H](N)[C@@H](O)[C@@H]1O (stereo not given in full)
**A:** inactive

**Q:** Hi, do you know how CC(C)(C)OC(=O)NCc1n[nH]c(=S)n1-c1ccccc1 came out in this test?
**A:** inactive

**Q:** Entry CC1=CC(=O)C(C(C)C)=CC1=O : call = ?
**A:** active

**Q:** I would be grateful if you could indicate the recorded call for CC(=O)O[C@@H]1CC2C(C)(C)CCC[C@]2(C)C2CC[C@]3(C)C(=CC(=O)O[C@H]3c3ccoc3)[C@@]21C (stereo not given in full) .
**A:** inactive
